- system-tested: Cytochrome P450 2C9 (Homo sapiens) (UniProt P11712)
- Sequence (P11712 whole entry, looked up): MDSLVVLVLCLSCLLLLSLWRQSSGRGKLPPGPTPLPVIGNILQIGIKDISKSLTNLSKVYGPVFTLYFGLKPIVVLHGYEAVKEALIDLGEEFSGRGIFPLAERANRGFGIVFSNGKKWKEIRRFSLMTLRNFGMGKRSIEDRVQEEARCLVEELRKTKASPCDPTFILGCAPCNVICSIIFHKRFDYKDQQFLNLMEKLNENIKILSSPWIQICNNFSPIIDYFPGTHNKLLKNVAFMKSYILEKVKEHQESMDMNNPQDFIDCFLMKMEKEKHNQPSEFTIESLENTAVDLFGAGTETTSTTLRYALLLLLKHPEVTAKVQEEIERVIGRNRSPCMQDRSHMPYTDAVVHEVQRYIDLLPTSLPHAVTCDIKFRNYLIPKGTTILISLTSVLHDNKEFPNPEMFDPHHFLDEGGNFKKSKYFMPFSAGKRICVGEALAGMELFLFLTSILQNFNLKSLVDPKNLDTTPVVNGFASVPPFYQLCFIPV
- protocol-text: Cytochrome panel assay with activity outcomes; as to activity, negative = inhibition: % is scaled to controls: 0 for no effect and ±100 for the full control effect
- experimental-parameters: recombinant CYP, pro-luciferin dealkylation, luminescence, p450-cyp2c9; series mostly up to 57.1 µM
- Experimental: The P450 gene superfamily is involved in the metabolism and clearance of xenobiotics. This assay used various human CYP P450 isozymes to measure the dealkylation of various pro-luciferin substrates to luciferin. The luciferin is then measured by luminescence after the addition of a luciferase detection reagent. […] Inhibitors and some substrates limit the production of luciferin, and decrease measured luminescence. […] 8, Detection, 1 sec, ViewLux luminescent read […]
Among all 16,000 compounds or so, about 4,000 (25%) were called active. Another 26% or so got no clear call; they are omitted. Not all results are given here.
experimental-readout: activity, negative = inhibition

Completed entries (count: 2):
[
  {
    "molecule-smiles": "C[C@@]12C[C@H](O)[C@@H]3[C@H](CCC4=CC(=O)CC[C@]43C)[C@H]1CC[C@@H]2c1csc(N)n1",
    "activity, negative = inhibition": "0.854% [at 11.4 µM] (inactive)"
  },
  {
    "molecule-smiles": "COC(=O)[C@@H]1O[C@@H](SCCN)[C@@H](O)[C@H](O)[C@H]1O",
    "activity, negative = inhibition": "15% [at 11.4 µM] (inactive)"
  }
]

Value of measured activity, negative = inhibition for the entry `CC(C)(N)C(=O)N[C@@H]1C(=O)N2[C@@H]1SC(C)(C)[C@H]2C(=O)O` : 14.5% [at 11.4 µM] (inactive)

----------
- system-tested: Cytochrome P450 2C9 (Homo sapiens)
- protocol-text: Cytochrome panel assay with activity outcomes; as to activity, negative = inhibition: % is scaled to controls: 0 for no effect and ±100 for the full control effect
- experimental-parameters: recombinant CYP, pro-luciferin dealkylation, luminescence, p450-cyp2c9; series mostly up to 57.1 µM
Out of some 16,000 compounds screened, about 4,000 (25%) were called active. About 26% were inconclusive and are not listed. A selection follows.
Examples of molecules with documented activity, negative = inhibition follow.

[
  {
    "molecule-smiles": "OCCCN=C1CCCCC1",
    "system-tested": "Cytochrome P450 2C9 (Homo sapiens)",
    "result": "-11% [at 11.4 µM] (inactive)"
  },
  {
    "molecule-smiles": "CCCCNN",
    "system-tested": "Cytochrome P450 2C9 (Homo sapiens)",
    "result": "-5.3% [at 11.4 µM] (inactive)"
  },
  {
    "molecule-smiles": "O[C@@H](COc1cccc2ccccc12)CN1CCOCC1",
    "system-tested": "Cytochrome P450 2C9 (Homo sapiens)",
    "result": "5.45% [at 11.4 µM] (inactive)"
  }
]

Value of measured activity, negative = inhibition for the entry `CN(C)Cc1cc(C(C)(C)C)ccc1-c1ccc(C(C)(C)C)cc1CN(C)C` : 12.6% [at 11.4 µM] (inactive)

Value of measured activity, negative = inhibition for the entry `CN1CCN(CCCBr)CC1` : 18% [at 11.4 µM] (inactive)

Value of measured activity, negative = inhibition for the entry `CN(C)CCNc1nc2c(c(=O)n(C)c(=O)n2C)n1C` : 4.45% [at 11.4 µM] (inactive)

----------
- system-tested: Cytochrome P450 2C9 (Homo sapiens) (UniProt P11712)
- protocol-text: Cytochrome panel assay with activity outcomes
- experimental-parameters: recombinant CYP, pro-luciferin dealkylation, luminescence, p450-cyp2c9; series mostly up to 57.1 µM
Out of some 16,000 compounds screened, about 4,000 (25%) were called active. Not shown: some 26% with an inconclusive outcome. Calls follow the shape of the dose curve; as a rule, active = well fitted curve in the direction sought with a large enough effect; inconclusive = small, poorly fitted or top-dose-only effect, or effect the other way; inactive = no such curve, though single readings can be large or run the other way. The list is a sample of the results.
A correct response names exactly one class from 1.0 = active, 0.0 = inactive

[
  {
    "compound": "Cc1nc2cnc(Oc3ccccc3)nc2n(C)c1=O",
    "system-tested": "Cytochrome P450 2C9 (Homo sapiens) (UniProt P11712)",
    "class-assignment": 0.0
  },
  {
    "compound": "COc1ccc(O)c(/C=N/NC(=O)c2ccc(OCc3cccc(Br)c3)cc2)c1",
    "system-tested": "Cytochrome P450 2C9 (Homo sapiens) (UniProt P11712)",
    "class-assignment": 0.0
  },
  {
    "compound": "COc1nc(/C(N)=N/O)nc(N2CCCCC2)n1",
    "system-tested": "Cytochrome P450 2C9 (Homo sapiens) (UniProt P11712)",
    "class-assignment": 0.0
  },
  {
    "compound": "NC(=O)C1CCN(C(=O)OCc2ccccc2)CC1",
    "system-tested": "Cytochrome P450 2C9 (Homo sapiens) (UniProt P11712)",
    "class-assignment": 0.0
  },
  {
    "compound": "O=c1oc(-c2ccco2)nc2c1cnn2-c1ccccc1",
    "system-tested": "Cytochrome P450 2C9 (Homo sapiens) (UniProt P11712)",
    "class-assignment": 1.0
  }
]

Here is the next item to consider.
QUERY: Tell me the recorded outcome of this test for `COC(=O)c1sccc1NC(=O)CSc1ccccc1NS(=O)(=O)c1ccc(Cl)cc1` .
RESULT: 1.0

Values compiled from PubChem BioAssay AID1851.
